Each recorded value in this set is attributed to the supplement of paper PMC7877785.

Assay: self-splicing fitness, log relative to wild type (ln ratio); higher = more splicing; Tetrahymena group I intron in knt gene, E. coli kanamycin selection, DiMSum; sequences stand for … in CUCUCU…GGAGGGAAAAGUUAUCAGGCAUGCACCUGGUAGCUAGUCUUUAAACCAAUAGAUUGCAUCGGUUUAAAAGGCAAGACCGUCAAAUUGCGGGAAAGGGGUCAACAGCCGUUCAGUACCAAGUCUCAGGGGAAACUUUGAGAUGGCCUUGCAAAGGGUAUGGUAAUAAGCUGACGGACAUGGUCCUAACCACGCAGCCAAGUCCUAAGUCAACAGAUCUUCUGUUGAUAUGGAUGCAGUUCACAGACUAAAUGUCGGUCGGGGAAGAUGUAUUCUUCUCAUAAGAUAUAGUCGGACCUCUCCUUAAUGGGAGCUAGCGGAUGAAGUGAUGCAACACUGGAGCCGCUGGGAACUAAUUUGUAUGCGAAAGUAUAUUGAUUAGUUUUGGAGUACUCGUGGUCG;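 note: selection with 25 µg/mL kanamycin versus none on LB agar overnight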
Conditions: 37 °C
Threshold rule: self-splicing fitness (ln) greater than or equal to -2 is rule met; below that, rule not met.

[
  {
    "Biopolymer sequence": "ACAGAGCAAUAUUACGUGUA",
    "Label value": "rule not met"
  },
  {
    "Biopolymer sequence": "CUAGAGCAAUAUUACGAGCU",
    "Label value": "rule not met"
  },
  {
    "Biopolymer sequence": "GGUUAGCAAUAUUACGACCG",
    "Label value": "rule met"
  },
  {
    "Biopolymer sequence": "AAGUAGCAAUAUUACGUGCG",
    "Label value": "rule met"
  },
  {
    "Biopolymer sequence": "GACCAGCAAUAUUACGUCCC",
    "Label value": "rule met"
  },
  {
    "Biopolymer sequence": "CAAGAGCAAUAUUACGUGAA",
    "Label value": "rule not met"
  },
  {
    "Biopolymer sequence": "UUCGAGCAAUAUUACGCGGU",
    "Label value": "rule met"
  },
  {
    "Biopolymer sequence": "AUACAGCAAUAUUACGGGAU",
    "Label value": "rule met"
  },
  {
    "Biopolymer sequence": "AGACAGCAAUAUUACGGUCC",
    "Label value": "rule met"
  },
  {
    "Biopolymer sequence": "GGCGAGCAAUAUUACGGAGC",
    "Label value": "rule not met"
  },
  {
    "Biopolymer sequence": "UCAGAGCAAUAUUACGAGGA",
    "Label value": "rule met"
  },
  {
    "Biopolymer sequence": "UCCUAGCAAUAUUACGAACG",
    "Label value": "rule met"
  },
  {
    "Biopolymer sequence": "GCUUAGCAAUAUUACGGGAA",
    "Label value": "rule met"
  },
  {
    "Biopolymer sequence": "CAUAAGCAAUAUUACGCAAA",
    "Label value": "rule not met"
  },
  {
    "Biopolymer sequence": "UGGGAGCAAUAUUACGACUG",
    "Label value": "rule met"
  }
]

---

Experiment: self-splicing fitness, log relative to wild type (ln ratio); higher = more splicing; Tetrahymena group I intron in knt gene, E. coli kanamycin selection, DiMSum; sequences stand for … in CUCUCU…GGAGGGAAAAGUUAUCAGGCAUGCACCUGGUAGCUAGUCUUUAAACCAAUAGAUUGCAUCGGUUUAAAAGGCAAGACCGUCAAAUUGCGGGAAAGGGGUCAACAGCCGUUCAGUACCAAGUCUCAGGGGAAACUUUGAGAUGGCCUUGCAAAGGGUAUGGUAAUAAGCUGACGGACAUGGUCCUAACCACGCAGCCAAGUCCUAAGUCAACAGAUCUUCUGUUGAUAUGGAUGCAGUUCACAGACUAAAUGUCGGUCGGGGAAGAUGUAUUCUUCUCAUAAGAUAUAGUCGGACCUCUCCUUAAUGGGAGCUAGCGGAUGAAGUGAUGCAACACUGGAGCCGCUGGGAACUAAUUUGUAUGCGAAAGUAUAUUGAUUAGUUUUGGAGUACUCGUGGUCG
Conditions: 37 °C
Threshold rule: self-splicing fitness (ln) greater than or equal to -2 is MET; below that, NOT MET.

[
  {
    "Biopolymer sequence": "CAAUAGCAAUAUUACGGCGU",
    "Label value": "MET"
  },
  {
    "Biopolymer sequence": "CUGUAGCAAUAUUACGGCGU",
    "Label value": "NOT MET"
  },
  {
    "Biopolymer sequence": "GCGGAGCAAUAUUACGUGUA",
    "Label value": "NOT MET"
  },
  {
    "Biopolymer sequence": "UAUAAGCAAUAUUACGAAUU",
    "Label value": "MET"
  },
  {
    "Biopolymer sequence": "CAGGAGCAAUAUUACGAUUG",
    "Label value": "NOT MET"
  },
  {
    "Biopolymer sequence": "GAAUAGCAAUAUUACGCCCU",
    "Label value": "MET"
  },
  {
    "Biopolymer sequence": "GAGAAGCAAUAUUACGCGUC",
    "Label value": "NOT MET"
  },
  {
    "Biopolymer sequence": "GUUCAGCAAUAUUACGGCCA",
    "Label value": "MET"
  },
  {
    "Biopolymer sequence": "GAACAGCAAUAUUACGCUAU",
    "Label value": "MET"
  },
  {
    "Biopolymer sequence": "CCAGAGCAAUAUUACGGAGU",
    "Label value": "NOT MET"
  },
  {
    "Biopolymer sequence": "CAAUAGCAAUAUUACGGGUU",
    "Label value": "NOT MET"
  },
  {
    "Biopolymer sequence": "AGCGAGCAAUAUUACGGCCU",
    "Label value": "MET"
  },
  {
    "Biopolymer sequence": "UGGUAGCAAUAUUACGGAGG",
    "Label value": "MET"
  },
  {
    "Biopolymer sequence": "UUUGAGCAAUAUUACGUCGU",
    "Label value": "NOT MET"
  },
  {
    "Biopolymer sequence": "CCAUAGCAAUAUUACGAACA",
    "Label value": "NOT MET"
  }
]
